assay: NCI Yeast Anticancer Drug Screen. Data for the wt2 strain (AID 169);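 further: 0% = growth of vehicle-treated yeast cultures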; conditions: S. cerevisiae wt2 strain growth inhibition; at 33.0 µM
About 79,000 compounds went through this panel and 15% of them were active in at least one assay; those are over-represented in the sample as a whole. The source made the active and inactive calls. No stated cut-off is given here; in the data, active means growth inhibition above about 70%; inactive means the rest.
Classes to choose from: label 1 (active), label 0 (inactive)

Recorded test outcome, item C/C(CCl)=N/NC1=NC(c2ccccc2Cl)P(=O)(NCCCNP2(=O)SC(N/N=C(/C)CCl)=NC2c2ccccc2Cl)S1 (stereo unspecified)
label 0

Hi team, can someone confirm the assay call for CC1(Cl)CC(C)(/C=C/Cl)C(Cl)CC1Cl (stereo unspecified) ?
label 0

Fill in: this test's call for O=[N+]([O-])c1oc2ccc3ccccc3c2c1CCO is ___
label 1

Dear all, I need the recorded test outcome for COc1cc([C@@H]2c3cc4c(cc3C[C@@H]3COC(=O)C32)OCO4)cc(OC)c1O (stereo partly specified) , thank you.
label 1

Could you check what this test reported for N#Cc1ccc([Se]c2ccccc2)cc1 ?
label 0

So what was the verdict on CN(C)CCC(C(=O)C(Br)Br)(c1ccccc1)c1ccccc1 in this test?
label 1

Any idea what this test logged for CCC1(O)C(=O)OCc2c1cc1n(c2=O)Cc2cc3ccccc3nc2-1 (stereo unspecified) ?
label 0

Which result was noted for this molecule in the test: CC1=C2C(=C[C@@](C)(CO)[C@@H]2O)C(=O)[C@](C)(O)C12CC2
label 0

Outcome? C[C@]12CCc3nonc3C1CC[C@@H]1C2CC[C@]2(C)C(=O)CCC12 (stereo partly specified)
label 0

Identify the outcome logged in this assay for the molecule shown: c1ccc(N=c2nc(N3CCOCC3)ss2)cc1
label 1

Tell me the assay call for C[C@@]12CCC(=O)C=C1CC[C@H]1C2=CC[C@]2(C)C1CC[C@@]2(C)O (stereo partly specified) please.
label 0

Please let me know the test result on file for CN(C)CCSC1=Nc2ccc(Cl)cc2C(c2ccccc2Cl)=NC1 .
label 0

Each molecule tested received a call. Report the one for O=C(O)CCCOc1cc(Cl)c(Cl)cc1Cl .
label 0

For CCOC(=O)C1=C(C(=O)OCC)C2(c3ccccc3)N(O1)c1ccccc1C2(C)C (stereo unspecified) , what call appears in the results of this test?
label 0

Record request — test call for CNC(=O)OCC1C2=C(C(=O)C(C)=C(N)C2=O)N2CC3C(N3C)C12OC (stereo unspecified)
label 0

Each molecule tested received a call. Report the one for [N-]=[N+]=C1C(Cl)=C(Cl)C(Cl)=C1Cl .
label 1

Per the records of this test, what outcome belongs to O=C(NNC(=O)OCC(Cl)(Cl)Cl)OCC(Cl)(Cl)Cl ?
label 1

Called result for CC1(C)N=C(N)N=C(N)N1c1cccc(N)c1.[Sn]
label 0

What classification did CCC1(O)C(=O)OCc2c1cc1n(c2=O)Cc2c-1nc1ccccc1c2OC (stereo unspecified) end up with in this test?
label 0

Kindly provide the recorded test outcome for the following molecule: C[N+](CCCl)(CCCl)Cc1cccc2cccc([N+](=O)[O-])c12
label 0

# lookup: test call for CNC(Cc1ccccc1)c1ccc(OC)c(OC)c1 (stereo unspecified)
label 0

Please let me know the test result on file for CCCCN(CCCC)CC(C(C)=O)C(c1ccccc1)c1c(O)c2ccccc2oc1=O (stereo unspecified) .
label 0

Outcome? O=C(O)C1C2CCC(C2)C1c1ccccc1 (stereo unspecified)
label 0

# outcome recorded in this test, key = CCC1(O)C(=O)OCc2c1cc1n(c2=O)Cc2cc3cc(Cl)ccc3nc2-1 (stereo unspecified)
label 0

Call for entry O=[N+]([O-])O.[NH-]C1CCCCC1[NH-].[NH-]C1CCCCC1[NH-].[NH-]C1CCCCC1[NH-].[OH-].[OH-].[OH-].[Pt+4].[Pt+4].[Pt+4] (stereo unspecified) :
label 0

Please share the test call associated with CCCCCCCCCC[Se]C#N .
label 0

Hi, do you know how Cc1cc[n+](C2=C(Nc3cccc(C(F)(F)F)c3)C(=O)c3ccccc3C2=O)cc1 came out in this test?
label 0

What was the test verdict on COc1ccc(OC)c(/C=C/[N+](=O)[O-])c1 ?
label 0

Hi, sorry to bother you, what did the test record for CCS(=O)(=O)[O][Sn]([CH2]C)([CH2]C)[O]S(=O)(=O)CC ?
label 0

What did the test return for O=C(O)CCCc1cc(I)c(N(CCCl)CCCl)c(I)c1 ?
label 1

Per the records of this test, what outcome belongs to CCNC(=O)OCC1C2=C(C(=O)C(C)=C(N)C2=O)N2CC3C(N3C)C12OC (stereo unspecified) ?
label 0

Could you kindly confirm the outcome this assay logged for CCCCCCCCCCCCCCCCP(=O)(O)OP(=O)(O)OCC1OC(n2ccc(N)nc2=O)C(O)C1O (stereo unspecified) ?
label 0

Returns: the outcome recorded for CC[C@](O)(C(=O)O)c1cc2n(c(=O)c1CO)Cc1cc3ccccc3nc1-2 in this assay.
label 1

Test call, this molecule: O=c1oc2ccccc2c(O)c1C(c1ccc2ccccc2c1)c1c(O)c2ccccc2oc1=O
label 1

Could you please tell me the result logged for C/C(=N\NC(N)=O)C(CN1CCOCC1)C(c1ccccc1)c1c(O)c2ccccc2oc1=O (stereo unspecified) in this assay?
label 0

Returns: the outcome recorded for O=C1NC(=S)NC(=O)C1=C/C=C/c1ccccc1 in this assay.
label 0

###

assay: NCI Yeast Anticancer Drug Screen. Data for the CLN2oe strain (AID 163);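 further: 0% = growth of vehicle-only control cultures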; conditions: S. cerevisiae CLN2oe strain, at 100.0 µM, active compounds read high
Compounds without any hit were thinned out: in the full panel of roughly 79,000, 15% have a hit.
measurement_label: growth inhibition (%)
The reply should contain only the number, in %.

Supply growth inhibition value. Item: C[C@]12CCC3[C@@H](CC[C@@H]4c5nonc5CC[C@]34C)C1CCC2=O (stereo partly drawn)
51

# return recorded growth inhibition for input COc1cc(C2c3cc4c(cc3[C@@H](Nc3ccc(N)cc3)C3COC(=O)[C@H]23)OCO4)cc(OC)c1O (stereo partly drawn)
88

Tell me its growth inhibition given Cc1c(N)nc([C@H](CC(N)=O)NC[C@H](N)C(N)=O)nc1C(=O)N[C@H](C(=O)N[C@H](C)[C@@H](O)[C@H](C)C(=O)N[C@H](C(=O)NCCc1nc(-c2nc(C(=O)NCCC[S+](C)C)cs2)cs1)[C@@H](C)O)C(OC1OC(CO)C(O)C(O)C1OC1OC(CO)C(O)C(OC(N)=O)C1O)c1cnc[nH]1 (stereo partly drawn) as the entry.
94

###

assay: NCI Yeast Anticancer Drug Screen. Data for the bub3 strain (AID 167); details: S. cerevisiae bub3 mutant strain, at 5.0 µM (retest, dose inferred, filed as 0.5), active compounds read high
About 79,000 compounds went through this panel and 15% of them were active in at least one assay; those are over-represented in the sample as a whole.
measurement_label: growth inhibition (%)
# output: bare number, implied unit %

Return growth inhibition (reported value) for this compound: CCC1(CC)C(=O)[N-]C(=O)[N-]C1=O.[Au+].[Au+].c1ccc([PH+](c2ccccc2)c2ccccc2)cc1.c1ccc([PH+](c2ccccc2)c2ccccc2)cc1
99

Identify the reported growth inhibition for the following entry. ClCCN(CCCl)B(N(CCCl)CCCl)N(CCCl)CCCl
3

Please give measured growth inhibition of the following entry: C/C(=N\N=C(\[Se])N1CCN(c2ccccn2)CC1)c1ccccn1
9

Tell me its growth inhibition given COC(=O)C1=C(C(=O)OC)SC2(S1)C(C(=O)OC)=C(C(=O)OC)Sc1c2ssc1=O as the entry.
55

For the compound COc1ccc2c3c1OC1C(=O)C4CC5(c6c(O)ccc(O)c64)C(C2)N(C)CCC315 (centres undefined) , give its reported growth inhibition.
-3

Supply measured growth inhibition of N#C[S-].[Ce+3].c1ccc(-c2ccccn2)nc1.c1ccc(-c2ccccn2)nc1.c1ccc(-c2ccccn2)nc1 in your reply.
55

Look up and state reported growth inhibition for NC(=O)c1ccc(N)nc1
-12

For c1ccc(C[As+](c2ccccc2)(c2ccccc2)c2ccccc2)cc1 , write its growth inhibition.
4

Give recorded growth inhibition. C[N+](C)(C)CC1CCC(C[N+](C)(C)C)C1=O (centres undefined)
-2

###

experiment: NCI Yeast Anticancer Drug Screen. Data for the rad50 strain (AID 155);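 further: 0% = growth of vehicle-only cultures of the same strain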; details: S. cerevisiae rad50 strain growth inhibition; at 5.0 µM (retest, dose inferred, filed as 0.5); active compounds read high
The panel holds about 79,000 compounds, 15% with a hit somewhere; the sample as a whole holds those more often.
measurement_label: growth inhibition (%)
Kindly provide the numeric value in % only, without the unit symbol.

Give me measured growth inhibition, please, for this compound: CCCCC1C(=O)NC(=S)N(c2ccccc2)C1=O (stereo not given)
-4

Identify measured growth inhibition associated with [Cl][Pt+2][Cl].[NH-]C(c1ccccc1)C([NH-])c1ccccc1 (stereo not given)
-11

Please report the measured growth inhibition for O=c1c2ccccc2[se]n1-c1ccccc1
6

Note down growth inhibition recorded for O=[N+]([O-])[O-].O=[N+]([O-])[O-].[Au].[Au].c1ccc([P-]c2ccccc2)cc1.c1ccc([P-]c2ccccc2)cc1
62

Quickly give me recorded growth inhibition for Cc1ccc2c[c]1[Hg][CH2]COS2(=O)=O
33
